These data points were gathered from PubChem BioAssay.

Biological target: Voltage-gated potassium channel subunit beta-2 (Rattus norvegicus) (UniProt P62483)
Sequence (P62483 whole entry, looked up): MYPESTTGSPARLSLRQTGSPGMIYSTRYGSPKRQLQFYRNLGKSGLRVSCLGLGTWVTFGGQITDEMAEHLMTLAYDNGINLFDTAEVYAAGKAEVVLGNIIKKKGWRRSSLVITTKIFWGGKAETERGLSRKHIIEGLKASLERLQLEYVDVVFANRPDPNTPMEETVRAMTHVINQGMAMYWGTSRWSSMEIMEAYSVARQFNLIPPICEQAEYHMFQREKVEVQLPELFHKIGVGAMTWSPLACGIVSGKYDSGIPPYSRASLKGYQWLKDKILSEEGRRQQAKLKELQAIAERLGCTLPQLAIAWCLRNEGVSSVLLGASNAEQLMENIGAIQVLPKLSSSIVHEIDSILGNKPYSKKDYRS
Experiment: inhibitors of rat Kvbeta2 reductase activity – biochemical, NADPH fluorescence, primary screen (AID 622);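 further: slope of raw intensity against log time taken from 70 to 1610 s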
Details: recombinant KvBeta, 4-cyanobenzaldehyde reduction, at 10 µM, stronger effect = higher value
Overview of reported fluorescence slope across a group of compounds:
MEASUREMENT_LABEL: fluorescence slope

* CN1CCN(CCCNC(=O)Cn2ncc3c4ccccc4n(C)c3c2=O)CC1 | -0.615
* Cc1cc(C)c(NC(=O)Cn2cc3c(n2)CCCC3)c(C)c1 | -0.515
* Cc1nn(-c2ccc(F)cc2)c2sc(C(=O)N3CCCCCC3)cc12 | -0.199
* O=c1[nH]cnc2c1nc(SCc1ccccc1)n2C1OC(CO)C(O)C1O (stereo not drawn) | -0.597
* Cc1cccc(C2CC(c3ccc(Br)cc3)Nc3nc(N)nn32)c1 (stereo not drawn) | -0.443
* CC(C)CNC(=O)c1ccccc1NC(=O)c1ccc(CN2CCOCC2)cc1 | -0.473
* Cn1nnnc1SCc1cn2cccnc2n1 | -0.106
* Fc1ccc(NCc2nnc(SCc3nnc(-c4ccccc4)o3)n2CC2CCCO2)cc1 (stereo not drawn) | -0.528
* CC1(C)CC(=O)C=C(NC2CCS(=O)(=O)C2)C1 (stereo not drawn) | -0.561
* Cc1ccc(Cc2c(C)nc3c(C(=O)O)cnn3c2C)cc1 | -0.376
* CC(=O)c1c(C)nn(C(C)CC(=O)O)c1C (stereo not drawn) | -0.509
* Cc1nc2c(-c3ccccc3)c(C)nn2c(C)c1CCC(=O)NCc1ccco1 | -0.584
* CC1C(=O)C(C)C(c2cccs2)NC1c1cccs1 (stereo not drawn) | -0.501
* Cc1ccc(/C=c2\sc3nc(-c4ccccc4Br)nn3c2=O)o1 | -0.577
* Cc1nnc(SCc2ccccc2F)n1NCc1cccs1 | -0.47
* CCOC(=O)Cc1nnc2c(Nc3ccccc3F)nc3nonc3n12 | -0.582
* Cc1nn(-c2ccc(F)cc2)c2sc(C(=O)O)cc12 | -0.447
* CCOc1ccc(C(=O)Nc2ccc(N3CCN(C)CC3)cc2)cc1Br | -0.571
* COc1ccc2c(c1)OC(O)(C(F)F)CC2=O (stereo not drawn) | -0.398
* CC(NS(=O)(=O)c1ccc(F)cc1)C(c1cccs1)N1CCN(C)CC1 (stereo not drawn) | -0.38
* COc1cccc(C2=Nn3c(nnc3-c3ccccc3O)SC2)c1 | -0.312
* COc1ccc(-n2c(=O)c3c4c(sc3n3cnnc23)CC(C)CC4)cc1 (stereo not drawn) | -0.46
* CC(NC(=O)Cc1cccs1)c1ccc2c(c1)OCO2 (stereo not drawn) | -0.609
* COC(=O)c1cccc(S(=O)(=O)N2CCC(C)CC2)c1 | -0.547
* CCCn1c(=O)c2ccccc2n2c(SCCOc3ccccc3F)nnc12 | -0.477
* CC1=C(C(=O)Nc2cccnc2)C(c2ccc(C(C)C)cc2)n2ncnc2N1 (stereo not drawn) | -0.4
* CCOc1ccccc1-c1nc(-c2ccc(C)nc2OC)no1 | -0.552
* Cc1ccc(-c2cn3nc(C)c(C)nc3n2)cc1 | -0.007
* CCOC(=O)N1CCN(C(=O)CSc2nnc(Cc3ccccc3)o2)CC1 | -0.525
* O=C(NCCN1C(=O)C2C3C=CC(C3)C2C1=O)Nc1ccccn1 (stereo not drawn) | -0.603
* N#Cc1c(-c2ccccc2)nc(N2CCCCCC2)[nH]c1=O | -0.41
* CCN(C(=O)c1cc(Cl)ccc1OC)c1ccccc1 | -0.447
* COc1ccc(C(=O)N2CCSC2=S)cc1OC | -0.457
* COc1cc(C2N3CC4(C)CN2CC(C)(C3)C4)ccc1O (stereo not drawn) | -0.345
* COc1ccc(CC(=O)NC2CCN(CC(=O)Nc3ccc4c(c3)OCCO4)CC2)cc1OC | -0.428
* CCOC(=O)C1CCN(C(=O)COc2ccc(Cl)cc2Cl)CC1 | -0.613
* O=C(NC(C(=O)c1ccccc1)N1CCOCC1)c1cccs1 (stereo not drawn) | -0.311
* CCOC(=O)Cc1csc(/C(=N/O)C(N)=O)n1 | -0.48
* CC(Sc1nnnn1C)C(=O)Nc1ccc(Oc2ccccc2)cc1 (stereo not drawn) | -0.505
* CCN1C(=O)C(C(=O)Nc2ccc(OC)cc2)C2CC1(C)Oc1ccccc12 (stereo not drawn) | -0.305
* COc1ccc(Cn2nnnc2C(c2cccs2)N2CCOCC2)cc1 (stereo not drawn) | -0.419
* Cc1ccc2cc(C#N)c(NCCCNC(=O)C3CCCO3)nc2c1 (stereo not drawn) | -0.476
* CC(C)(C)C(=O)NC1CCN(C(=O)N2CCCC2)CC1 | -0.311
* COc1ccc(C2CC(c3ccc(OC)cc3)n3nc(N)nc3N2)cc1 (stereo not drawn) | -0.595
* O=C(OCC#CCSc1nc2ccccc2s1)c1ccco1 | -0.471
* CC1CCc2nn(CC(=O)NCc3ccc4c(c3)OCO4)cc2C1 (stereo not drawn) | -0.506
* C=CCN1C(=O)CS/C1=N/c1nccs1 | -0.459
* O=C1C(Cl)=C(N2CCOCC2)C(=O)N1CCc1ccccc1 | -0.356
